# System: Escherichia coli WP2uvrA
# Experimental protocol: Ames test (reverse mutation test), WP2uvrA
# Type: cell-based
# Measurement setup: WP2uvrA, +S9 mix, 6.9 µg/plate
Measured parameter: Number of revertant colonies

# example entries with known answers
- Compound: "CC(C)(OCc1cc(F)cc(-c2cc(N)nn2-c2ccc(F)cc2)c1)C(F)(F)F [Metabolite D]"
  Measured parameter: "Number of revertant colonies"
  Observed: 18
- Compound: "CC(C)(C)Oc1cc(F)cc(-c2cc(N)nn2C(F)(F)F)c1 [Metabolite 1]"
  Measured parameter: "Number of revertant colonies"
  Observed: 31
- Compound: "CC(C)(C)Oc1cccc(-c2cc(N)nn2-c2ccccc2)c1 [Metabolite C]"
  Measured parameter: "Number of revertant colonies"
  Observed: 23

Next up:
Exercise: Look up Number of revertant colonies of Nc1cc(-c2cc(F)cc(OC(F)(F)F)c2)n(-c2cncc(C(F)(F)F)c2)n1 [Metabolite 5] and report it.
Solution: 22
